# System: Mtb H37Rv (ATCC 27294)
# assay.text: Microplate Alamar Blue Assay (MABA), in vitro M. tuberculosis growth inhibition
# Type: cell-based, Mycobacterium tuberculosis
# test.parameters: 4 μg/mL; Mtb H37Rv, MABA; mean of three experiments
property: % Inhibition (%)
Numbers only, in %.

| molecule | test.target | % Inhibition, % |
| --- | --- | --- |
| CC(C)C(=O)CC[C@@H](C)[C@H]1CC[C@H]2[C@@H]3C(C=O)=C4C[C@@H](O)CC[C@]4(C)[C@H]3CC[C@]12C | Mtb H37Rv (ATCC 27294) | 67 |
| CCC(CCC(C)C1CCC2C3C(C=O)=C4CC(O)CCC4(C)C3CCC12C)C(C)C (centres unmarked) | Mtb H37Rv (ATCC 27294) | 97 |
| CC(C)[C@@H](C)CC[C@@H](C)[C@H]1CC[C@H]2[C@@H]3CC=C4C[C@@H](O)CC[C@]4(C)[C@H]3CC[C@]12C | Mtb H37Rv (ATCC 27294) | 14 |

Could I get % Inhibition for every one of these entries?
1. CCC(CCC(C)C1CCC2C3CC=C4CC(O)CCC4(C)C3CCC12C)C(C)C (centres unmarked)
2. CC(C)CCC[C@@H](C)[C@H]1CC[C@H]2[C@@H]3C(C=O)=C4C[C@@H](O)CC[C@]4(C)[C@H]3CC[C@]12C

*A*
[8, 34]

Could I get % Inhibition for every one of these entries?
1. C=C(CC[C@@H](C)[C@H]1CC[C@H]2[C@@H]3C(C=O)=C4C[C@@H](O)CC[C@]4(C)[C@H]3CC[C@]12C)C(C)C
2. CC(C)[C@@H](C)CC[C@@H](C)[C@H]1CC[C@H]2[C@@H]3C(C=O)=C4C[C@@H](O)CC[C@]4(C)[C@H]3CC[C@]12C
3. CC(C)C(C)C1(C)CC1C(C)C1CCC2C3C(C=O)=C4CC(O)CCC4(C)C3CCC12C (centres unmarked)

*A*
1. 69
2. 94
3. 33

* * *

# System: Mtb H37Rv (ATCC 27294)
# assay.text: Microplate Alamar Blue Assay (MABA), in vitro M. tuberculosis growth inhibition
# Type: cell-based, Mycobacterium tuberculosis
# test.parameters: 128 μg/mL; Mtb H37Rv, MABA; mean of three experiments
property: % Inhibition (%)
One number for each entry, in %.

// worked examples, % Inhibition included
| compound | test.target | % Inhibition, % |
| --- | --- | --- |
| CC(C)[C@@H](C)CC[C@@H](C)[C@H]1CC[C@H]2[C@@H]3C(C=O)=C4C[C@@H](O)CC[C@]4(C)[C@H]3CC[C@]12C | Mtb H37Rv (ATCC 27294) | 99 |
| CC(C)C(C)C1(C)CC1C(C)C1CCC2C3CC=C4CC(O)CCC4(C)C3CCC12C (stereo not shown) | Mtb H37Rv (ATCC 27294) | 38 |
| CC(C)[C@@H](C)CC[C@@H](C)[C@H]1CC[C@H]2[C@@H]3CC=C4C[C@@H](O)CC[C@]4(C)[C@H]3CC[C@]12C | Mtb H37Rv (ATCC 27294) | 58 |
| C=C(CC[C@@H](C)[C@H]1CC[C@H]2[C@@H]3C(C=O)=C4C[C@@H](O)CC[C@]4(C)[C@H]3CC[C@]12C)C(C)C | Mtb H37Rv (ATCC 27294) | 99 |
| CC(C)C(C)C1(C)CC1C(C)C1CCC2C3C(C=O)=C4CC(O)CCC4(C)C3CCC12C (stereo not shown) | Mtb H37Rv (ATCC 27294) | 99 |
| CC(C)CCC[C@@H](C)[C@H]1CC[C@H]2[C@@H]3C(C=O)=C4C[C@@H](O)CC[C@]4(C)[C@H]3CC[C@]12C | Mtb H37Rv (ATCC 27294) | 99 |

Could I get % Inhibition for every one of these entries?
1. C=C(CC[C@@H](C)[C@H]1CC[C@H]2[C@@H]3CC=C4C[C@@H](O)CC[C@]4(C)[C@H]3CC[C@]12C)C(C)C
2. CCC(CCC(C)C1CCC2C3CC=C4CC(O)CCC4(C)C3CCC12C)C(C)C (stereo not shown)
3. CC(C)C(=O)CC[C@@H](C)[C@H]1CC[C@H]2[C@@H]3C(C=O)=C4C[C@@H](O)CC[C@]4(C)[C@H]3CC[C@]12C

*A*
1. 97
2. 45
3. 99

*Q* Given CCC(CCC(C)C1CCC2C3C(C=O)=C4CC(O)CCC4(C)C3CCC12C)C(C)C (stereo not shown) , state its recorded % Inhibition.
*A* 99
